Hello, the source for this data is patent US20240018153A1, in case you need it.

Entries and their remaining activity at 10 µM
target: BMX (Homo sapiens (Human), UniProt P51813); test: HTRF KinEASE-TK kinase assay, BMX; type: biochemical; conditions: 10 uM compound, 3 h preincubation
Sequence (P51813 whole entry): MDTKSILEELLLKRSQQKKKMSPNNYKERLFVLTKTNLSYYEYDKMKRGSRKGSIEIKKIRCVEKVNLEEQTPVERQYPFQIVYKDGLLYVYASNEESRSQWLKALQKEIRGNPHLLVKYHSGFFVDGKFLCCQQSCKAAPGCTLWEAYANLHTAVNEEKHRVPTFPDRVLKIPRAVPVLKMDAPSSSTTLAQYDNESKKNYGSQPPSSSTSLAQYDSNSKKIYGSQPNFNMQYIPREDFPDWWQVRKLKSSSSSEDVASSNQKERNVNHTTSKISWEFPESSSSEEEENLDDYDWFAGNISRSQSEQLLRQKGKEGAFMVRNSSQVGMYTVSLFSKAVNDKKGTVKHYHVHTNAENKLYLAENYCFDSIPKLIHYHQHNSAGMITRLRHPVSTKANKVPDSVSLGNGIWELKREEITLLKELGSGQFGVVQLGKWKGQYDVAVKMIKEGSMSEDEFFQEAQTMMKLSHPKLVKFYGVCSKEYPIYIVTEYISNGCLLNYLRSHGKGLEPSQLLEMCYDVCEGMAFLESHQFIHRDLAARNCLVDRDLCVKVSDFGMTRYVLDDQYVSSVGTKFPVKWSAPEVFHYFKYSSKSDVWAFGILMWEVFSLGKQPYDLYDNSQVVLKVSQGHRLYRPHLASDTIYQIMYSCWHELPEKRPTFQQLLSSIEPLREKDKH
Measurement Name: remaining activity at 10 µM

Compound: COCCOc1ccc(Nc2ncc(F)c(Nc3cccc(NC(=O)c4c(F)c(F)c(F)c(F)c4S(C)(=O)=O)c3)n2)cc1
Measurement Name: remaining activity at 10 µM
Test Result: < 50%
--
Compound: C[S+]([O-])c1c(F)c(F)c(F)c(F)c1Nc1cc2c(Nc3ccc(F)c(Cl)c3)ncnc2cc1O[C@H]1CCOC1 (stereo partly shown)
Measurement Name: remaining activity at 10 µM
Test Result: > 90%
--
Compound: Nc1ncnc2c1c(-c1ccc(Oc3ccccc3)cc1)nn2[C@@H]1CCCN(C(=O)c2c(F)c(F)c(F)c(F)c2S(N)(=O)=O)C1
Measurement Name: remaining activity at 10 µM
Test Result: < 50%
--
Compound: COCCOc1ccc(Nc2ncc(F)c(Nc3cccc(Nc4c(F)c(F)c(F)c(F)c4[S@+](C)[O-])c3)n2)cc1 (stereo in doubt)
Measurement Name: remaining activity at 10 µM
Test Result: < 50%
--
Compound: C[S@+]([O-])c1c(F)c(F)c(F)c(F)c1C(=O)Nc1ncnc2[nH]ccc12 (racemic)
Measurement Name: remaining activity at 10 µM
Test Result: 50 to 90%
--
Compound: COCCOc1ccc(Nc2ncc(F)c(Nc3cccc(NS(=O)(=O)c4c(F)c(F)c(F)c(F)c4C(F)(F)F)c3)n2)cc1
Measurement Name: remaining activity at 10 µM
Test Result: < 50%
--
Compound: O=S(=O)(Nc1cc2c(Nc3ccc(F)c(Cl)c3)ncnc2cc1O[C@H]1CCOC1)c1c(F)c(F)c(F)c(F)c1C(F)(F)F
Measurement Name: remaining activity at 10 µM
Test Result: 50 to 90%
--
Compound: CN(CCn1nc(-c2ccc(Oc3ccccc3)cc2)c2c(N)ncnc21)c1c(F)c(F)c(F)c(F)c1S(C)(=O)=O
Measurement Name: remaining activity at 10 µM
Test Result: > 90%
--
Compound: CN(C)S(=O)(=O)c1c(F)c(F)c(F)c(F)c1C(=O)N1CC(n2nc(-c3ccc(Oc4ccccc4)cc3)c3c(N)ncnc32)C1
Measurement Name: remaining activity at 10 µM
Test Result: < 50%
--
Compound: CN(C)S(=O)(=O)c1c(F)c(F)c(F)c(F)c1C(=O)NCCCn1nc(-c2ccc(Oc3ccccc3)cc2)c2c(N)ncnc21
Measurement Name: remaining activity at 10 µM
Test Result: < 50%
--
Compound: CS(=O)(=O)c1c(F)c(F)c(F)c(F)c1C(=O)Nc1cc2c(Nc3ccc(F)c(Cl)c3)ncnc2cc1O[C@H]1CCOC1
Measurement Name: remaining activity at 10 µM
Test Result: < 50%
--
Compound: CS(=O)(=O)c1c(F)c(F)c(F)c(F)c1CNCCNc1ncnc2[nH]ccc12
Measurement Name: remaining activity at 10 µM
Test Result: < 50%
--
Compound: COc1c(F)c(F)c(F)c(F)c1S(=O)(=O)n1nc(-c2ccc(Oc3ccccc3)cc2)c2c(N)ncnc21
Measurement Name: remaining activity at 10 µM
Test Result: < 50%

---

target: JAK3 (Homo sapiens (Human), UniProt P52333); test: HTRF KinEASE-TK kinase assay, JAK3; format: biochemical; conditions: read-out: % JAK3 Remaining activity vs DMSO (1 μM, 3 h)
Sequence (P52333 781-1124): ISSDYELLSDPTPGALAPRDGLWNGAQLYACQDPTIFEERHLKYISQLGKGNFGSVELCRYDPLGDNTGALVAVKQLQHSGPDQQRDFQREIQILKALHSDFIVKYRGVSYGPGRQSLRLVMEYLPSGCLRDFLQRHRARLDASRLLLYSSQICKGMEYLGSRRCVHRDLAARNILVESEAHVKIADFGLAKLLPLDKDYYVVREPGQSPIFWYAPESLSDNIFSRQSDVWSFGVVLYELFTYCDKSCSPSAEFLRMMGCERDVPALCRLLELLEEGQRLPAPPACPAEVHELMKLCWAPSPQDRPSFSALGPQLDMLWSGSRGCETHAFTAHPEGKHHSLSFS
Measurement Name: remaining activity at 1 µM

Compound: CS(=O)(=O)c1c(F)c(F)c(F)c(F)c1Nc1cc2c(Nc3ccc(F)c(Cl)c3)ncnc2cc1O[C@H]1CCOC1 [Compound I-2]
Measurement Name: remaining activity at 1 µM
Test Result: 50 to 90%
//
Compound: COCCOc1ccc(Nc2ncc(F)c(Nc3cccc(NS(=O)(=O)c4c(F)c(F)c(F)c(F)c4C(F)(F)F)c3)n2)cc1 [Compound I-53]
Measurement Name: remaining activity at 1 µM
Test Result: < 50%
//
Compound: CN(C)S(=O)(=O)c1c(F)c(F)c(F)c(F)c1C(=O)N1CC(n2nc(-c3ccc(Oc4ccccc4)cc3)c3c(N)ncnc32)C1 [Compound I-29]
Measurement Name: remaining activity at 1 µM
Test Result: < 50%
//
Compound: COCCOc1ccc(Nc2ncc(F)c(Nc3cccc(NS(=O)(=O)c4c(F)c(F)c(F)c(F)c4CF)c3)n2)cc1 [Compound I-58]
Measurement Name: remaining activity at 1 µM
Test Result: > 90%
//
Compound: C[S+]([O-])c1c(F)c(F)c(F)c(F)c1Nc1cc2c(Nc3ccc(F)c(Cl)c3)ncnc2cc1O[C@H]1CCOC1 (stereo partly shown) [Compound I-4]
Measurement Name: remaining activity at 1 µM
Test Result: > 90%
//
Compound: C[S@+]([O-])c1c(F)c(F)c(F)c(F)c1C(=O)N1CC(n2nc(-c3ccc(Oc4ccccc4)cc3)c3c(N)ncnc32)C1 (racemic) [Compound I-37]
Measurement Name: remaining activity at 1 µM
Test Result: < 50%
//
Compound: COCCOc1ccc(Nc2ncc(F)c(Nc3cccc(NS(=O)(=O)c4c(F)c(F)c(F)c(F)c4C(F)F)c3)n2)cc1 [Compound I-51]
Measurement Name: remaining activity at 1 µM
Test Result: > 90%
//
Compound: Nc1ncnc2c1c(-c1ccc(Oc3ccccc3)cc1)nn2C1CCN(S(=O)(=O)c2c(F)c(F)c(F)c(F)c2OC(F)F)C1 (stereo in doubt) [Compound I-26]
Measurement Name: remaining activity at 1 µM
Test Result: 50 to 90%
//
Compound: CN(C)S(=O)(=O)c1c(F)c(F)c(F)c(F)c1C(=O)NCCn1nc(-c2ccc(Oc3ccccc3)cc2)c2c(N)ncnc21 [Compound I-40]
Measurement Name: remaining activity at 1 µM
Test Result: > 90%
//
Compound: Nc1ncnc2c1c(-c1ccc(Oc3ccccc3)cc1)nn2CCCNC(=O)c1c(F)c(F)c(F)c(F)c1S(N)(=O)=O [Compound I-34]
Measurement Name: remaining activity at 1 µM
Test Result: 50 to 90%
//
Compound: Nc1ncnc2c1c(-c1ccc(Oc3ccccc3)cc1)nn2CCNC(=O)c1c(F)c(F)c(F)c(F)c1S(N)(=O)=O [Compound I-42]
Measurement Name: remaining activity at 1 µM
Test Result: > 90%
//
Compound: CS(=O)(=O)c1c(F)c(F)c(F)c(F)c1C(=O)NCCn1nc(-c2ccc(Oc3ccccc3)cc2)c2c(N)ncnc21 [Compound I-38]
Measurement Name: remaining activity at 1 µM
Test Result: > 90%
//
Compound: Nc1ncnc2c1c(-c1ccc(Oc3ccccc3)cc1)nn2[C@@H]1CCCN(C(=O)c2c(F)c(F)c(F)c(F)c2S(N)(=O)=O)C1 [Compound I-35]
Measurement Name: remaining activity at 1 µM
Test Result: > 90%

---

biological target: JAK3 (Homo sapiens (Human)); assay: HTRF KinEASE-TK kinase assay, JAK3; type: biochemical; settings: read-out: % JAK3 Remaining activity vs DMSO (1 μM, 3 h)

Compound: C[S+]([O-])c1c(F)c(F)c(F)c(F)c1C(=O)N1CCC[C@@H](n2nc(-c3ccc(Oc4ccccc4)cc3)c3c(N)ncnc32)C1 (stereo partly drawn) [Compound I-36]
remaining activity at 1 µM: > 90%
//
Compound: CN(C)S(=O)(=O)c1c(F)c(F)c(F)c(F)c1C(=O)NCCCn1nc(-c2ccc(Oc3ccccc3)cc2)c2c(N)ncnc21 [Compound I-41]
remaining activity at 1 µM: > 90%
//
Compound: CS(=O)(=O)c1c(F)c(F)c(F)c(F)c1C(=O)NCCCn1nc(-c2ccc(Oc3ccccc3)cc2)c2c(N)ncnc21 [Compound I-39]
remaining activity at 1 µM: 50 to 90%
//
Compound: COc1c(F)c(F)c(F)c(F)c1S(=O)(=O)n1nc(-c2ccc(Oc3ccccc3)cc2)c2c(N)ncnc21 [Compound I-23]
remaining activity at 1 µM: > 90%
//
Compound: Nc1ncnc2c1c(-c1ccc(Oc3ccccc3)cc1)nn2[C@@H]1CCN(S(=O)(=O)c2c(F)c(F)c(F)c(F)c2OCF)C1 [Compound I-24]
remaining activity at 1 µM: > 90%
//
Compound: C[S@+]([O-])c1c(F)c(F)c(F)c(F)c1C(=O)Nc1ncnc2[nH]ccc12 (racemic) [Compound I-46]
remaining activity at 1 µM: > 90%

---

biological target: FGFR4 (Homo sapiens (Human), UniProt P22455); assay: HTRF KinEASE-TK kinase assay, FGFR4; type: biochemical; conditions: read-out: % FGFR4 Remaining activity vs DMSO (10 μM, 3 h)
Sequence (P22455 22-802): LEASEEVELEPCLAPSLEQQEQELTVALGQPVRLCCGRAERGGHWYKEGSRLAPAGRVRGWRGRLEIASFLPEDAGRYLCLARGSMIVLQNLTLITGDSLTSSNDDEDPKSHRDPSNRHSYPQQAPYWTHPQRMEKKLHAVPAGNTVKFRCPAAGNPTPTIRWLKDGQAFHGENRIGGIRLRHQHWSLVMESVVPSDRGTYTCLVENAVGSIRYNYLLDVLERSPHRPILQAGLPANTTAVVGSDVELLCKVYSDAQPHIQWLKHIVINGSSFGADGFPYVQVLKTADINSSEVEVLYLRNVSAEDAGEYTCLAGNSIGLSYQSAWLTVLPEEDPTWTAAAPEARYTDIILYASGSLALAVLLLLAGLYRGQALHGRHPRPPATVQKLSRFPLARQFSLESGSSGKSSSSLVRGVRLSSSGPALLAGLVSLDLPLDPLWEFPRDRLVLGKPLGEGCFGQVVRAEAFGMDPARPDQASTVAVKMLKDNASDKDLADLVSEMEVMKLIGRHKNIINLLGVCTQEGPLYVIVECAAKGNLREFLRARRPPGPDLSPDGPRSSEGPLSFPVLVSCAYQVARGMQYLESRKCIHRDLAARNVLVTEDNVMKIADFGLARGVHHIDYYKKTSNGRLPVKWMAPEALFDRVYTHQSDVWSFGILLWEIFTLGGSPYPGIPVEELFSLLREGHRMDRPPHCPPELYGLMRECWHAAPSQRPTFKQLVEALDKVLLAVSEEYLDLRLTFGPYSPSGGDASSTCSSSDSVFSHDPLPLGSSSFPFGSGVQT
Recorded remaining activity at 10 µM values for a group of molecules are listed next.

Molecule: Nc1ncnc2c1c(-c1ccc(Oc3ccccc3)cc1)nn2CCCNC(=O)c1c(F)c(F)c(F)c(F)c1S(N)(=O)=O
remaining activity at 10 µM: < 50%

Molecule: COc1c(F)c(F)c(F)c(F)c1S(=O)(=O)n1nc(-c2ccc(Oc3ccccc3)cc2)c2c(N)ncnc21
remaining activity at 10 µM: > 90%

Molecule: Nc1ncnc2c1c(-c1ccc(Oc3ccccc3)cc1)nn2[C@@H]1CCN(S(=O)(=O)c2c(F)c(F)c(F)c(F)c2OCF)C1
remaining activity at 10 µM: < 50%

Molecule: CN(C)S(=O)(=O)c1c(F)c(F)c(F)c(F)c1C(=O)N1CC(n2nc(-c3ccc(Oc4ccccc4)cc3)c3c(N)ncnc32)C1
remaining activity at 10 µM: > 90%

Molecule: CS(=O)(=O)c1c(F)c(F)c(F)c(F)c1C(=O)NCCCn1nc(-c2ccc(Oc3ccccc3)cc2)c2c(N)ncnc21
remaining activity at 10 µM: < 50%

Molecule: Nc1ncnc2c1c(-c1ccc(Oc3ccccc3)cc1)nn2[C@@H]1CCCN(C(=O)c2c(F)c(F)c(F)c(F)c2S(N)(=O)=O)C1
remaining activity at 10 µM: < 50%

Molecule: Nc1ncnc2c1c(-c1ccc(Oc3ccccc3)cc1)nn2CCNS(=O)(=O)c1c(F)c(F)c(F)c(F)c1OCF
remaining activity at 10 µM: < 50%

Molecule: O=S(=O)(Nc1cc2c(Nc3ccc(F)c(Cl)c3)ncnc2cc1O[C@H]1CCOC1)c1c(F)c(F)c(F)c(F)c1C(F)(F)F
remaining activity at 10 µM: > 90%

Molecule: CN(C)S(=O)(=O)c1c(F)c(F)c(F)c(F)c1C(=O)NCCn1nc(-c2ccc(Oc3ccccc3)cc2)c2c(N)ncnc21
remaining activity at 10 µM: < 50%

Molecule: CS(=O)(=O)c1c(F)c(F)c(F)c(F)c1C(=O)n1ccc2c(N)ncnc21
remaining activity at 10 µM: < 50%

Molecule: NS(=O)(=O)c1c(F)c(F)c(F)c(F)c1C(=O)NCCNc1ncnc2[nH]ccc12
remaining activity at 10 µM: 50 to 90%

Molecule: CN(C)S(=O)(=O)c1c(F)c(F)c(F)c(F)c1C(=O)NCCCn1nc(-c2ccc(Oc3ccccc3)cc2)c2c(N)ncnc21
remaining activity at 10 µM: < 50%

Molecule: C[S+]([O-])c1c(F)c(F)c(F)c(F)c1Nc1cc2c(Nc3ccc(F)c(Cl)c3)ncnc2cc1O[C@H]1CCOC1 (stereo partly shown)
remaining activity at 10 µM: > 90%
